# System: nerve/muscle (motor plate) junction, phrenic nerve/diaphragm preparation (striated muscle)
# Assay Remarks: Muscle-relaxant effect on contractions of isolated rat phrenic nerve/diaphragm preparation induced by indirect stimulation via the phrenic nerve
# Stated Conditions: Rattus norvegicus; contractions induced by indirect stimulation via phrenic nerve; cumulative concentrations 10^−10 M to 10^−5 M; read-out: IC50 (concentration to obtain 50% of the inhibitory effect)
# Procedure: Hecogenin acetate and diosgenin, sold by Sigma, were tested on a model of nerve/muscle (motor plate) junction obtained in a phrenic nerve/diaphragm preparation isolated from rat (striated muscle) (Pollard B. J. et al, Br. J. Anaesth., 1988, 61, 419-424). […] The tension variations of the diaphragm are recorded with an initial pre-load of several grams. […]
Observed Property: pIC50
Give only the number. pIC50 is defined as minus log10 of concentration in molar units.

INSERT INTO assay_data (compound, test_result) VALUES
  ('C[C@@H]1CC[C@@]2(OC1)O[C@H]1C[C@H]3[C@@H]4CC=C5C[C@@H](O)CC[C@]5(C)[C@H]4CC[C@]3(C)[C@H]1[C@@H]2C', 6.00);

Proceeding to the next compound to report its pIC50.
pIC50 reported for this compound CC(=O)O[C@H]1CC[C@@]2(C)[C@@H](CC[C@@H]3[C@@H]2CC(=O)[C@]2(C)[C@@H]4[C@H](C[C@@H]32)O[C@]2(CC[C@@H](C)CO2)[C@H]4C)C1 [Hecogenin acetate] : 5.60
